Where do these numbers come from? They come from patent US20210115113A1.

Biological target: T1, EBV gp350 expressed on the surface of stably transfected CHO cells (Epstein-Barr virus, UniProt P03200 1-907)
T1 construct: also called native gp350; gp350 expressing CHO cells
T1 sequence: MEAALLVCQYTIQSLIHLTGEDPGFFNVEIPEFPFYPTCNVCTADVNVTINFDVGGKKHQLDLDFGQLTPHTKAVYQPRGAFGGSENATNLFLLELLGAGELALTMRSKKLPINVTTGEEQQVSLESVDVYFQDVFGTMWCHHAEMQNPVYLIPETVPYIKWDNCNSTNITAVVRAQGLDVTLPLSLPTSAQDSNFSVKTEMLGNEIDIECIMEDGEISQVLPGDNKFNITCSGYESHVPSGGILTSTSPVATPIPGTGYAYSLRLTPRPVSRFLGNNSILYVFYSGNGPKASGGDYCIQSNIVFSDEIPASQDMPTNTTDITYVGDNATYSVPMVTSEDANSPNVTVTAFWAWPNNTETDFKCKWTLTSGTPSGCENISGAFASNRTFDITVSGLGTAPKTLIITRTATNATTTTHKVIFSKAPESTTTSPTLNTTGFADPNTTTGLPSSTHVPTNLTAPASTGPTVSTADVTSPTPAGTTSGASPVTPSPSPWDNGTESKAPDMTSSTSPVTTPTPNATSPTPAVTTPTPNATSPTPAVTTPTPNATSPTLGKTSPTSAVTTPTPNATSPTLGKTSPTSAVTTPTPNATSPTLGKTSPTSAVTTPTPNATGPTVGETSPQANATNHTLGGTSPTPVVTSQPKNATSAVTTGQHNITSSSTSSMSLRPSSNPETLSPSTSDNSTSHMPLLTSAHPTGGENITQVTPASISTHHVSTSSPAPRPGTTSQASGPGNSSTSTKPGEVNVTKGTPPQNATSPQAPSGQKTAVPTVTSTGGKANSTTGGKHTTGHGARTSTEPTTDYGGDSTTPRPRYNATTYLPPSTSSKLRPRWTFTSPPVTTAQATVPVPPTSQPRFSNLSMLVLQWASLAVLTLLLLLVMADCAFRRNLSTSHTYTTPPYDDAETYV
Assay: cross-competition on gp350-CHO cells (flow), unlabeled 500 µg/ml; competitor: biotinylated m72A1
Parameter: % inhibition of biotinylated nAbs. Scope: all listed entries.
Numbers only; they are read as %.

Sample records with % inhibition of biotinylated nAbs:
[[record]]
binder = "HB1 (antibody, V domains shown) VH: PGLVAPSQSLSITCTVSGFLLTTYGVHWVRQPPGKGLEWLGVIWAGGSTNYNSALMSRLSINKDISKSQVFLKMNSLQTDDTAMYYCTRDRGYGYLYAMDYWGQGTSVTVSS VL: KFMSTSVGDRVSVTCKASQNVGTNVAWYQQKPGQSPKALIYSTSSRYTGVPDRFAGSGSGTDYTLTISNVQSEDLAEYFCQQYNTYPYTFGGGTRLDIKR"
quantitativereadout = 98

[[record]]
binder = "HB11 (antibody, V domains shown) VH: PSLVKPSQTLSLTCSVTGDSITSGFWNWIRKFPGNKLEYMGYISYSGSTYYNPSLKSRISITRDTSKNQYYLQLNSVTTEDTATYYCARGNGGNYDWYFDVWGAGTTVTVSS VL: AIMSASLGEKVTMSCRASSSVNFMNWYQQKSDDSPKLLIYYISNLAPGVPARFSGSGSGNSYSLTISGMEGEDAATYYCQQFTSSPSWTFGGGTKLEIKR"
quantitativereadout = 97


Here is another binder to look at.
### Prompt Given HB17 (antibody, V domains shown) VH: AELVIPGASVKVSCKASGYTFTSYWIHWVKQWPGQGLEWIGEINPNNGHTNYNEKFKSKATLTVDKSSSTAYMQLSSLTSEDSAVYYCARNLFYYSRPDYWGQGTSVTVSS VL: SSLSASLGDRVTISCRASQDIGNYLNWYQQKPDGTIKLLIYYTSRLHSGVPSRFSGSGSGTDYSLTISNLEEEDIATYFCQQGNTLPPTFGGGTKLEIKR , state its recorded % inhibition of biotinylated nAbs.
### Response 24
